# LC retention time annotations
Assay: HILIC, Waters ACQUITY UPLC BEH Amide, 100 × 2.1 mm, 1.7 µm; A: water + 0.125% formic acid + 10 mM ammonium formate; B: 5% water + 95% acetonitrile + 0.125% formic acid + 10 mM ammonium formate; gradient (min/%B) 0/100 2/100 7.7/70 9.5/40 10.25/30 12.75/100 17/100
Settings: stereoisomer not certain
outcomeMeasure: LC retention time (min)

O=C(O)Cc1cccc(O)c1 [3-Hydroxyphenylacetic acid]: 1.45
c1ccncc1: 6.63
O=C(O)C(O)Cc1c[nH]c2ccccc12 (stereo unspecified): 2.25
CC(=O)CCCCn1cnc2c1c(=O)n(C)c(=O)n2C: 1.09
CC(=O)NC1C(O)OC(CO)C(O)C1O (stereo unspecified): 7.01
CC(OP(=O)(O)O)C(N)C(=O)O (stereo unspecified): 9.74
CNNCc1ccc(C(=O)NC(C)C)cc1: 4.61
NC(N)=NC(=O)c1nc(Cl)c(N)nc1N [Amiloride]: 5.52
CCC=CCC1C(=O)CCC1CC(=O)OC (stereo unspecified) [Methyl jasmonate]: 1.04
COc1cc(C(=O)O)cc(OC)c1O: 1.35
Nc1ccn(C2CCC(CO)O2)c(=O)n1 (stereo unspecified): 4.54
Nc1c(O)cccc1C(=O)CC(N)C(=O)O (stereo unspecified) [3-Hydroxykynurenine]: 7.35
CC12CCC(=O)C=C1CCC1C2CCC2(C)C(O)CCC12 (stereo unspecified): 1.05
O=c1c(O)c(-c2ccc(O)cc2)oc2cc(O)cc(O)c12: 1.4
Oc1cc(O)cc(O)c1: 1.15
CN1CCC(=C2c3ccccc3C=Cc3ccccc32)CC1: 2.31
CNCCC(Oc1ccccc1C)c1ccccc1 (stereo unspecified): 2.42
C=C(C)CN1CCC23c4c5ccc(O)c4OC2c2[nH]c4ccccc4c2CC3(O)C1C5 (stereo unspecified): 2.93
CN(C)CCCN1c2ccccc2CCc2ccc(Cl)cc21: 2.31
CC(C)=CCCC(C)O (stereo unspecified): 7.3
CC(=O)N[C@@H](CCCCN)C(=O)O: 8.15

###

Experiment: HILIC, Waters ACQUITY UPLC BEH Amide, 100 × 2.1 mm, 1.7 µm; A: water + 0.125% formic acid + 10 mM ammonium formate; B: 5% water + 95% acetonitrile + 0.125% formic acid + 10 mM ammonium formate; gradient (min/%B) 0/100 2/100 7.7/70 9.5/40 10.25/30 12.75/100 17/100
Settings: stereoisomer not certain
Reported LC retention time values for the following compounds.
outcomeMeasure: LC retention time (min)

CN1CCCCC1CCN1c2ccccc2Sc2ccc(S(C)=O)cc21 (stereo not given) [Mesoridazine]: 4.24
CCCCCCCCCCCCCCCCC(=O)O [Heptadecanoic acid]: 3.01
COc1ccc(OC)c(C(O)C(C)N)c1 (stereo not given) [Methoxamine]: 4.75
Nc1nc2[nH]c(=O)cnc2c(=O)[nH]1 [Isoxanthopterin]: 6.41
O=c1ccn(C2CC(O)C(COP(=O)(O)O)O2)c(=O)[nH]1 (stereo not given) [Deoxyuridine monophosphate]: 8.25
CC(C)CC(N)C(=O)N1CCCC1C(=O)O (stereo not given) [Leu-Pro]: 7.32
CC(N=C(NC#N)Nc1ccncc1)C(C)(C)C (stereo not given) [Pinacidil]: 1.49
NC(=O)c1cccnc1 [Nicotinamide]: 1.7
Nc1ccn(C2CC(O)C(COP(=O)(O)O)O2)c(=O)n1 (stereo not given) [2-Deoxycytidine-5-monophosphoric acid]: 9.16
O=C(CO)c1ccccc1 [2-Hydroxyacetophenone]: 4.36
